We begin with a simple list: items and their reported IC50.
molecular target: human melanocortin-3 (MC-3) receptors (Homo sapiens, UniProt P41968); construct: expressed in transfected cells; membrane fraction used; test: Melanocortin receptor binding assay, 125I-NDP-alpha-MSH competition, MC-3; settings: HEK 293 cell membranes; about […] 125I-NDP-α-MSH; 180 minutes at 25 C; read-out: hMC3 IC50 (nM) 125I NDP-MSH
Sequence (P41968 whole entry): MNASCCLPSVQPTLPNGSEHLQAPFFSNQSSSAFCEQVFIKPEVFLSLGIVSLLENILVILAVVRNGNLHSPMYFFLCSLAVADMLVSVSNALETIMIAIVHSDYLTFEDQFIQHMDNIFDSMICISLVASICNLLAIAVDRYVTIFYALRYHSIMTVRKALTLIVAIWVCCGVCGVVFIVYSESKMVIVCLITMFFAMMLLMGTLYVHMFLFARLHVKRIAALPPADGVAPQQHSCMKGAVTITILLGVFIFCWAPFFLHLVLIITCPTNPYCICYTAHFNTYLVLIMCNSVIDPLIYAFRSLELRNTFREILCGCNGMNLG
Square brackets hold non-standard residues; d marks the D form. Ends that are not written are not given here. Abu = CC[C@H](N)C(=O)O

Q. Request the reported IC50 associated with [Abu][Abu]DPCAS[Abu]QCRFFRSACS[Abu]RVLSLNC (cysteine pairing not given here) [SEQ ID NO:17]
A. > 1000 nM

Q. Continue with C[Abu]DPCAS[Abu]Q[Abu]RFFRSA[Abu]SCRVLSLNC (cysteine pairing not given here) [SEQ ID NO:18]
A. > 1000 nM

Q. Continue with AC[Abu]DP[Abu]AS[Abu]QCRFFRSACSCRVL (cysteine pairing not given here) [SEQ ID NO:16]
A. > 1000 nM

Q. Continue with His-Glu-Ser-Abu-Leu-Gly-Gln-Gln-Val-Pro-Cys-Abu-Asp-Pro-Abu-Ala-Thr-Abu-Tyr-Cys-Arg-Phe-Phe-Asn-Ala-Phe-Cys-Tyr-Cys-Arg-Lys-Leu [SEQ ID NO:4]
A. 850 nM

Q. Continue with [Abu][Abu]DPCAT[Abu]YCRFFNAFCY[Abu]RKLGTAMNPCSRT (cysteine pairing not given here) [SEQ ID NO:9]
A. > 1000 nM

Q. Continue with C[Abu]DPCAT[Abu]Y[Abu]RFFNAF[Abu]YCRKLGTAMNPCSRT (cysteine pairing not given here) [SEQ ID NO:11]
A. > 1000 nM
